Reference source for all entries: patent US20050054103A1

Test system: HL-60 cells
Assay: Copper determination in chelator treated cells (atomic absorption)
Format: cell-based, human
Conditions: 20 μM chelator
Overview of recorded Average Intracellular ppb Cu for various compounds

C1CNCCOCCNCCN1: 39.0 ppb

Entry under test: C1CNCCNCCNCCN1 . Its Average Intracellular ppb Cu was 27.5 ppb

Entry under test: O=C1CC(=O)NCCNCCCNCCN1 . Its Average Intracellular ppb Cu was 37.9 ppb

Entry under test: C1CNCCNCCN1.Cl.Cl.Cl [1,4,7-Triazacyclononane trihydrochloride] . Its Average Intracellular ppb Cu was 15.8 ppb

Entry under test: C1COCCNCCOCCN1 . Its Average Intracellular ppb Cu was 35.5 ppb

Entry under test: NCCCNCCCNCCCN . Its Average Intracellular ppb Cu was 33.8 ppb
